# Tested on: BCRP-gene-transfected human colon cancer HCT116 cells (HCT116/BCRP cells)
# PROTOCOL NOTES: Effect of overcoming anticancer agent resistance in vivo (oral administration), HCT116/BCRP xenograft with CPT-11
# Parameters: species or system BALB/c male nude mice
# EXPERIMENTAL SETUP: compound 0.20 mmol/kg/day oral once a day for nine days + CPT-11 45 mg/kg/day i.v. day 1, 5, 9; day 21; vs control group
# Tumor growth inhibition ratio IR (%) per record follows

{"columns": ["SMILES REPRESENTATION", "Tumor growth inhibition ratio IR (%)"],
 "data": [
  ["COc1ccc(/C(C#N)=C/c2ccc(N3CCC(OC(=O)CN4CCCCC4)CC3)s2)cc1OC.CS(=O)(=O)O", 50.9],
  ["COc1ccc(/C(C#N)=C/c2ccc(N3CCC(OC(=O)CN4CCCCC4)CC3)s2)cc1OC.Cl", 51.9],
  ["COc1ccc(/C(C#N)=C/c2ccc(N3CCC(OC(=O)CN4CCC(O)CC4)CC3)s2)cc1OC.CS(=O)(=O)O", 36.9],
  ["COc1ccc(/C(C#N)=C/c2ccc(N3CCC(OC(=O)CN4CCC(O)CC4)CC3)s2)cc1OC.Cl", 31.8]
]}

Attribution: patent US20100249089A1
